System: FLU A (PR/8/34)
Experiment: Flu A Neuraminidase Antiviral Assay
Assay type: cell-based
METRIC NAME: EC50

Some compounds with known EC50 results, for comparison:
COMPOUND	EC50
CC1(c2nccs2)CCCC2N(CC(F)(F)F)C(=O)c3c(O)c(=O)ccn3N21 (single isomer, unassigned) [Compound 41A]	> 8.1 µM
CN1C(=O)c2c(O)c(=O)ccn2N2C(c3ccccc3)C(CC3CC3(F)F)CCC12 (single isomer, unassigned) [Compound 114B]	> 8.1 µM

Next up:
Request: Enter measured EC50, system FLU A (PR/8/34), for the compound shown: CN1C(=O)c2c(O)c(=O)ccn2N2[C@H](c3ccccc3)[C@H](OCC(F)F)CC[C@@H]12 (single isomer, unassigned) [Compound 153B]
Result: 0.0944 µM

Origin of measurements: patent US20240018145A1
